Would you kindly list viability, T/C for each of these compounds?
system: 435261-313-R-J1-PDC tumor spheroid viability; assay: Anticancer human tumor 435261-313-R-J1-PDC patient-derived colon adenocarcinoma cell line growth inhibition [PI3K]; details: second compound 1 µM; first compound 0.0316 µM; active compounds read low; spheroids with HUVEC and MSC;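 note: spheroids exposed to compounds for 7 days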
Answers are plain numbers, in %.

As a guide, the following entries are already answered.
| compound | readout | measuredResult |
| --- | --- | --- |
| CC(C)NCC(C(=O)N1CCN(c2ncnc3c2C(C)CC3O)CC1)c1ccc(Cl)cc1 (stereo not given) + CC(Nc1ncnc2nc[nH]c12)c1cc2cccc(Cl)c2c(=O)n1-c1ccccc1 | viability, T/C | 98.1 |
| CC(=O)c1c(C)c2cnc(Nc3ccc(N4CCNCC4)cn3)nc2n(C2CCCC2)c1=O + Cc1nc(NC(=O)N2CCCC2C(N)=O)sc1-c1ccnc(C(C)(C)C(F)(F)F)c1 | viability, T/C | 26.6 |
| CCN1CCN(Cc2ccc(Nc3ncc(F)c(-c4cc(F)c5nc(C)n(C(C)C)c5c4)n3)nc2)CC1 + COc1c(OCCCN2CCOCC2)ccc2c3n(c(=NC(=O)c4cnc(N)nc4)nc12)CCN3 | viability, T/C | 3.83 |

Batch request: viability, T/C per item, same order as input.
1. CC1(C)CCC(Nc2ncc(C(F)(F)F)c(-c3c[nH]c4c(P(C)(C)=O)c(C#N)ccc34)n2)CN1 (stereo not given) + CC(Nc1ncnc2nc[nH]c12)c1cc2cccc(Cl)c2c(=O)n1-c1ccccc1
2. CC1(C)CCC(CN2CCN(c3ccc(C(=O)NS(=O)(=O)c4ccc(NCC5CCOCC5)c([N+](=O)[O-])c4)c(Oc4cnc5[nH]ccc5c4)c3)CC2)=C(c2ccc(Cl)cc2)C1 + CC(Nc1ccc2c(c1)OCCn1cc(N3C(=O)OCC3C(F)F)nc1-2)C(N)=O
3. Cn1ncnc1[C@H]1c2n[nH]c(=O)c3cc(F)cc(c23)N[C@@H]1c1ccc(F)cc1 + CC(Nc1ccc2c(c1)OCCn1cc(N3C(=O)OCC3C(F)F)nc1-2)C(N)=O
4. CC(C)NCC(C(=O)N1CCN(c2ncnc3c2C(C)CC3O)CC1)c1ccc(Cl)cc1 (stereo not given) + COc1c(OCCCN2CCOCC2)ccc2c3n(c(=NC(=O)c4cnc(N)nc4)nc12)CCN3
5. CC(C)NCC(C(=O)N1CCN(c2ncnc3c2C(C)CC3O)CC1)c1ccc(Cl)cc1 (stereo not given) + CC(Nc1ccc2c(c1)OCCn1cc(N3C(=O)OCC3C(F)F)nc1-2)C(N)=O
6. C=CC(=O)N1CCN(c2nc(=O)n(-c3c(C)ccnc3C(C)C)c3nc(-c4c(O)cccc4F)c(F)cc23)C(C)C1 (stereo not given) + Cc1nc(NC(=O)N2CCCC2C(N)=O)sc1-c1ccnc(C(C)(C)C(F)(F)F)c1
7. C[C@@H](NC(=O)c1ncnc(N)c1Cl)c1ncc(C(=O)Nc2cc(C(F)(F)F)c(Cl)cn2)s1 + COc1c(OCCCN2CCOCC2)ccc2c3n(c(=NC(=O)c4cnc(N)nc4)nc12)CCN3
8. CC1(C)CCC(CN2CCN(c3ccc(C(=O)NS(=O)(=O)c4ccc(NCC5CCOCC5)c([N+](=O)[O-])c4)c(Oc4cnc5[nH]ccc5c4)c3)CC2)=C(c2ccc(Cl)cc2)C1 + Cc1nc(NC(=O)N2CCCC2C(N)=O)sc1-c1ccnc(C(C)(C)C(F)(F)F)c1

50.5
16.4
20.2
3.46
18.1
35.1
5.11
26.7

Batch request: viability, T/C per item, same order as input.
1. Cn1ncc(Cl)c1-c1cc(C(=O)NC(CN)Cc2cccc(F)c2)sc1Cl (stereo not given) + CC(Nc1ncnc2nc[nH]c12)c1cc2cccc(Cl)c2c(=O)n1-c1ccccc1
2. CC1(C)CCC(CN2CCN(c3ccc(C(=O)NS(=O)(=O)c4ccc(NCC5CCOCC5)c([N+](=O)[O-])c4)c(Oc4cnc5[nH]ccc5c4)c3)CC2)=C(c2ccc(Cl)cc2)C1 + COc1c(OCCCN2CCOCC2)ccc2c3n(c(=NC(=O)c4cnc(N)nc4)nc12)CCN3
3. CNC(=O)c1ccc(N2C(=S)N(c3ccc(C#N)c(C(F)(F)F)c3)C(=O)C2(C)C)cc1F + Cc1nc(NC(=O)N2CCCC2C(N)=O)sc1-c1ccnc(C(C)(C)C(F)(F)F)c1
4. CC1(C)CCC(CN2CCN(c3ccc(C(=O)NS(=O)(=O)c4ccc(NCC5CCOCC5)c([N+](=O)[O-])c4)c(Oc4cnc5[nH]ccc5c4)c3)CC2)=C(c2ccc(Cl)cc2)C1 + CC(Nc1ncnc2nc[nH]c12)c1cc2cccc(Cl)c2c(=O)n1-c1ccccc1
5. CNC(=O)c1ccc(N2C(=S)N(c3ccc(C#N)c(C(F)(F)F)c3)C(=O)C2(C)C)cc1F + CC(Nc1ncnc2nc[nH]c12)c1cc2cccc(Cl)c2c(=O)n1-c1ccccc1
6. C#Cc1c(F)ccc2cc(O)cc(-c3ncc4c(N5CC6CCC(C5)N6)nc(OCC56CCCN5CC(F)C6)nc4c3F)c12 (stereo not given) + CC(Nc1ccc2c(c1)OCCn1cc(N3C(=O)OCC3C(F)F)nc1-2)C(N)=O
7. CNC(=O)c1ccc(N2C(=S)N(c3ccc(C#N)c(C(F)(F)F)c3)C(=O)C2(C)C)cc1F + COc1c(OCCCN2CCOCC2)ccc2c3n(c(=NC(=O)c4cnc(N)nc4)nc12)CCN3
8. CC1(C)CCC(Nc2ncc(C(F)(F)F)c(-c3c[nH]c4c(P(C)(C)=O)c(C#N)ccc34)n2)CN1 (stereo not given) + Cc1nc(NC(=O)N2CCCC2C(N)=O)sc1-c1ccnc(C(C)(C)C(F)(F)F)c1

1: 94.7; 2: 4.19; 3: 26.3; 4: 87.6; 5: 95.1; 6: 18.9; 7: 4.12; 8: 23.3

Return the recorded viability, T/C value; entry: Cn1ncnc1[C@H]1c2n[nH]c(=O)c3cc(F)cc(c23)N[C@@H]1c1ccc(F)cc1 + COc1c(OCCCN2CCOCC2)ccc2c3n(c(=NC(=O)c4cnc(N)nc4)nc12)CCN3
4.54
